Numbers sourced from patent US20200241008.

test.system: T1, indicator molecule containing the cleavable sequence (GPQGIFGQ) with a terminal biotin group connected via a polyethylene glycol spacer/linker, intact
T1 chain: GPQGIFGQ
quantity.measured: reader value at 0.5 µg/ml MMP (lateral flow)
Include the unit right after the number.

Worked examples follow.
[Q] // lookup reader value at 0.5 µg/ml MMP (lateral flow) for MMP11 (Enzo) (protein) FVLSGGRWEKTDLTYRILRFPWQLVQEQVRQTMAEALKVWSDVTPLTFTEVHEGRADIMIDFARYWHGDDLPFDGPGGILAHAFFPKTHREGDVHFDYDETWTIGDDQGTDLLQVAAHEFGHVLGLQHTTAAKALMSAFYTFRYPLSLSPDDCRGVQHLYGQPWPTVTSRTPALG
[A] 280 reader units

[Q] Record request: reader value at 0.5 µg/ml MMP (lateral flow) value, item MMP12 (Enzo) (protein) GPVWRKHYITYRINNYTPDMNREDVDYAIRKAFQVWSNVTPLKFSKINTGMADILVVFARGAHGDFHAFDGKGGILAHAFGPGSGIGGDAHFDEDEFWTTHSGGTNLFLTAVHEIGHSLGLGHSSDPKAVMFPTYKYVDINTFRLSADDIRGIQSLYG
[A] 1250 reader units

[Q] reader value at 0.5 µg/ml MMP (lateral flow) for MMP7 (Enzo) (protein) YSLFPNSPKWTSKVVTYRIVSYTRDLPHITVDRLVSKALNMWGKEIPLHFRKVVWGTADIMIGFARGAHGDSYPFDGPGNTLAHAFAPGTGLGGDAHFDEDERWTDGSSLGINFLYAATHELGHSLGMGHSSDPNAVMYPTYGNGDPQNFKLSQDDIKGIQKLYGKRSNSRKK ?
[A] 373 reader units

As a next step, examine the protein that follows.
[Q] Would you mind telling me what reader value at 0.5 µg/ml MMP (lateral flow) value was observed for MMP1 (Enzo) (protein) FVLTEGNPRWEQTHLTYRIENYTPDLPRADVDHAIEKAFQLWSNVTPLTFTKVSEGQADIMISFVRGDHRDNSPFDGPGGNLAHAFQPGPGIGGDAHFDEDERWTNNFREYNLHRVAAHELGHSLGLSHSTDIGALMYPSYTFSGDVQLAQDDIDGIQAIYGRSQNPVQP ?
[A] 478 reader units
